# Tested on: MDA-MB-468 breast
# TEST METHOD NOTES: NCI-60 one-dose screen, 48 h (100 = growth as untreated, 0 = no growth, -100 = all killed)
# EXPERIMENTAL CONTEXT: 10 µM unless noted
The panel holds about 83,000 compounds, 20% with a hit somewhere; the sample as a whole holds those more often.
Exam item: assign yes (1) to entries whose growth is below 50% and no (0) to entries at or above 50%. Note that a value of exactly 50% receives no (0).

Qu. Confirm or reject: growth of CC(C)(C)c1ccc(Cn2c(-c3nonc3N)nc3ccccc32)cc1 lies strictly below 50%
Ans. yes (1)

Qu. Bench note: check whether Nc1ccc(C2=NN(C(=O)c3cc(-c4ccc(Cl)cc4)nc4ccccc34)C(c3ccccc3)C2)cc1 (stereo not given) shows growth below 50%
Ans. yes (1)

Qu. Please check: growth for CC(=O)N(N=Nc1ccccc1)c1cccc2ccccc12 , strictly under 50% or not?
Ans. no (0)

Qu. Dear colleague, could you confirm whether growth of O=C(NNC(=O)c1ccncc1)Nc1ccc([N+](=O)[O-])cc1 falls below 50%? Thanks.
Ans. no (0)

Please find the next molecule below.
Qu. Dear colleague, could you confirm whether growth of Cc1c(C(=O)NCCCc2ccccc2)sc2ncc(-c3ccc(Br)cc3)n12 falls below 50%? Thanks.
Ans. no (0)

---

What growth was measured for each of the following?
# Test system: MDA-MB-468 breast
# TEST METHOD NOTES: NCI-60 one-dose screen, 48 h (100 = growth as untreated, 0 = no growth, -100 = all killed)
# EXPERIMENTAL CONTEXT: 10 µM unless noted
About 83,000 compounds went through this panel and 20% of them were active in at least one assay; those are over-represented in the sample as a whole.
Numbers only, in %.

Entry NC1=NC2(CCCC2)N(c2ccc(S(=O)(=O)Nc3nccs3)cc2)C(N)=N1 : growth on MDA-MB-468 breast = 90.7

Measured on MDA-MB-468 breast, O=C(NCCCNc1cc(-c2cn(-c3ccccc3)nc2-c2cccc(O)c2)ccn1)c1ccccc1 has a documented growth of -61

Record O=C1Nc2cc(Cl)ccc2Oc2cc(Oc3ccccc3)ccc21 ; system MDA-MB-468 breast; growth = 1.71

The value of growth recorded for O=[N+]([O-])c1cccc(N=Cc2ccc3c(c2)OCO3)c1 when tested on MDA-MB-468 breast reads 103

// input: 7 compounds below; output: growth for each
1. N#Cc1c(-c2cccs2)cc(-c2cnccn2)nc1SCC(=O)N/N=C/c1ccccc1
2. OC1CCCN(Cc2ccccc2)C1 (stereo unspecified)
3. CCN(CC)CCNC(=O)C(Cl)=C1C(Cl)=C(Cl)C(Cl)=C1Cl
4. C=C1C(=O)O[C@H]2[C@H]1CC/C(C=Nc1ccc(C(F)(F)F)cc1N)=C\CC[C@@]1(C)O[C@@H]21
5. CC1=C(O)C(=O)CC1
6. N#C/C(=C\c1ccc([N+](=O)[O-])cc1)n1nnc2cc(F)c(F)cc21
7. COc1ccc(OC)c(C2C(C#N)=C(N)Oc3cc(O)ccc32)c1 (stereo unspecified)

Ans.
1. 9.18
2. 103
3. 75.8
4. 1.92
5. 104
6. -40
7. 81.1

---

# Tested on: MDA-MB-468 breast
# TEST METHOD NOTES: NCI-60 one-dose screen, 48 h
# EXPERIMENTAL CONTEXT: 10 µM unless noted
# Method: Growth inhibition of the MDA-MB-468 human Breast tumor cell line is measured as a screen for anti-cancer activity. Cells are grown in 96 well plates and exposed to the test compound for 48 hours. Compounds are tested at a single concentration, which is 10^-5 M for most compounds. The reported endpoint is percent growth (GI% or GIPRCNT), where numbers from 0 - 100% represent growth inhibition, and numbers from -100% - 0 represent cell death. […]
The panel holds about 83,000 compounds, 20% with a hit somewhere; the sample as a whole holds those more often. The source made the active and inactive calls. Rule for the calls: active = growth percent below 10; inactive = the rest.
Tick one outcome: class 1 (active), class 0 (inactive)

See these solved cases before continuing.
Qu. Per the records of this test, what outcome belongs to O=c1[nH]c(=S)[nH]n1C(=S)n1[nH]c(=S)[nH]c1=O ?
Ans. class 0

Qu. Test call for this compound, please: Nc1nc(Cl)c2[nH]cnc2n1
Ans. class 0

Qu. Please let me know the test result on file for COc1cc(NC(=O)CCSc2nc3ccccc3c(=O)n2CCc2ccccn2)cc(OC)c1OC .
Ans. class 0

Qu. For COc1ccc2c(O)c(/C=C3\N=Nc4nc(C)ccc43)oc2c1CC1CCNCC1 , what call appears in the results of this test?
Ans. class 1

Qu. How did this test come out for O=C(Nc1cccc(-n2cc(-c3ccncc3)c(-c3ccc(Cl)c(O)c3)n2)c1)Nc1ccc(Cl)c(Cl)c1 ?
Ans. class 1

Qu. # outcome recorded in this test, key = COc1ccc(-c2csc(N(C(=O)N3CCN(c4cc5c(cc4F)c(=O)c(C(=O)O)cn5C4CC4)CC3)c3ccccc3)n2)cc1
Ans. class 1

Qu. Look up the recorded call for Cc1ccc2nc3ccccc3c(NCc3ccccc3)c2c1 in this test.
Ans. class 1

Qu. Identify the outcome logged in this assay for the compound shown: CSc1ccc2c3c(n(C[C@H](O)CO)c(=O)c2c1)-c1ccccc1C3=O
Ans. class 0

***
Qu. Short answer needed: outcome of this test for CN(C)CCNC(=O)c1cccc(-c2cnc3ccc(-c4ccc5c(c4)OCO5)nn23)c1 ?
Ans. class 0

Qu. Identify the outcome logged in this assay for the compound shown: COc1ccc(-n2c(C(O)c3ccccc3)n[nH]c2=S)cc1 (stereo unspecified)
Ans. class 0

Qu. Which result was noted for this compound in the test: CCC1CN2C(=N1)c1ccccc1-c1cc(Cl)ccc12 (stereo unspecified)
Ans. class 1

Qu. State the result this test recorded for Cc1ccc(-c2cc3nc(C(Cl)Cl)nc(-c4cccnc4)n3n2)cc1 .
Ans. class 1

Qu. So what was the verdict on C[C@@H]1O[C@@H](O[C@@H]2C[C@H](c3ccc4c(c3O)C(=O)C3=C(C4=O)[C@@]4(O)C(=O)C[C@](C)(O)C[C@@]4(O)C=C3)O[C@H](C)[C@H]2O)CC[C@@H]1O[C@H]1C[C@@H](O)[C@H](O)[C@@H](C)O1 in this test?
Ans. class 0

Qu. Short answer needed: outcome of this test for CCn1c(SC)nnc1-c1cc2c([nH]c3ccccc32)c(-c2cccc(O)c2)n1 ?
Ans. class 1

Qu. What did the test return for O=[N+]([O-])c1ccc(N/N=C/c2ccccc2O)nc1 ?
Ans. class 0

Qu. For C/C=C/C(=O)OCCCCCCCCCCCC , what call appears in the results of this test?
Ans. class 0

Qu. Look up the recorded call for COc1ccncc1C#Cc1cncc(C(=O)Nc2ccc(CN3CCN(C)CC3)c(C(F)(F)F)c2)c1 in this test.
Ans. class 0

Qu. What classification did O=C1N/C(=N/N=C(c2ccccc2)c2ccccc2)S/C1=C\c1ccc(Br)cc1 end up with in this test?
Ans. class 0

Qu. Give the logged outcome of this assay for the following compound: Nc1ccc(-c2cc3c(Nc4ccc(OCc5cccc(F)c5)c(Cl)c4)ncnc3s2)cc1
Ans. class 0

Qu. Hi, do you know how CCCCCCCOc1cccc(/C=C2/C(=O)N=C3SCCCN32)c1 came out in this test?
Ans. class 0

Qu. Short answer needed: outcome of this test for COc1cc(/C=C2\COc3ccc(-c4ccccc4)cc3C2=O)cc(OC)c1 ?
Ans. class 0
